Taken from ChEMBL document CHEMBL1130340.

- System: Enterococcus faecalis
- assay.overview: In vitro antimicrobial activity against Enterococcus faecalis ATCC 7080
- Type: functional
experimental.readout: MIC (µg/mL)

CCCNc1cc(O)c2c(c1O)C(=O)C1=C(CC3(CC(O)c4cc5cc(C(=O)OC)oc(=O)c5c(O)c4O3)O1)C2=O (configuration not stated)	0.06
CNc1cc(O)c2c(c1O)C(=O)C1=C(CC3(CC(O)c4cc5cc(C(=O)OC)oc(=O)c5c(O)c4O3)O1)C2=O (configuration not stated)	0.03
COC(=O)c1cc2cc3c(c(O)c2c(=O)o1)OC1(CC2=C(O1)C(=O)c1c(O)c(NCC(F)(F)F)cc(O)c1C2=O)CC3O (configuration not stated)	0.03
COC(=O)c1cc2cc3c(c(O)c2c(=O)o1)OC1(CC2=C(O1)C(=O)c1c(O)c(NCCO)cc(O)c1C2=O)CC3O (configuration not stated)	0.06
COC(=O)c1cc2cc3c(c(O)c2c(=O)o1)OC1(CC2=C(O1)C(=O)c1c(O)c(NCC#N)cc(O)c1C2=O)CC3O (configuration not stated)	0.13

[A] CCNc1cc(O)c2c(c1O)C(=O)C1=C(CC3(CC(O)c4cc5cc(C(=O)OC)oc(=O)c5c(O)c4O3)O1)C2=O (configuration not stated)
[B] COC(=O)c1cc2cc3c(c(O)c2c(=O)o1)OC1(CC2=C(O1)C(=O)c1c(O)c(NCCN)cc(O)c1C2=O)CC3O (configuration not stated)
Q: // pick min by MIC: A , B Mark your answer with the label of the selected entry.
Result: A
(A: 0.06 µg/mL, B: 2 µg/mL)

---

- System: Haemophilus influenzae
- assay.overview: In vitro antimicrobial activity against Haemophilus influenza ATCC 19418
- Assay type: functional
experimental.readout: MIC (µg/mL)

CCCNc1cc(O)c2c(c1O)C(=O)C1=C(CC3(CC(O)c4cc5cc(C(=O)OC)oc(=O)c5c(O)c4O3)O1)C2=O (stereo unspecified)	0.13
COC(=O)c1cc2cc3c(c(O)c2c(=O)o1)OC1(CC2=C(O1)C(=O)c1c(O)c(NCC#N)cc(O)c1C2=O)CC3O (stereo unspecified)	0.13
COC(=O)c1cc2cc3c(c(O)c2c(=O)o1)OC1(Cc2c(O)c4c(c(O)c2O1)C(=O)C(OC)=CC4=O)CC3O (stereo unspecified)	0.03

[1] COC(=O)c1cc2cc3c(c(O)c2c(=O)o1)OC1(CC2=C(O1)C(=O)c1c(O)c(N)cc(O)c1C2=O)CC3O (stereo unspecified)
[2] COC(=O)c1cc2cc3c(c(O)c2c(=O)o1)OC1(CC2=C(O1)C(=O)c1c(O)c(NCCN)cc(O)c1C2=O)CC3O (stereo unspecified)
Q: 1 or 2 : whose MIC is greater? Choose, then provide that item's label.
Result: 2
(2: 32 µg/mL, 1: 0.06 µg/mL)

---

- System: Staphylococcus epidermidis
- assay.overview: In vitro antimicrobial activity against Staphylococcus epidermidis ATCC 12228
- Type: functional
experimental.readout: MIC (µg/mL)

Worked examples follow.
COC(=O)c1cc2cc3c(c(O)c2c(=O)o1)OC1(CC2=C(O1)C(=O)c1c(O)c(NCCO)cc(O)c1C2=O)CC3O (stereo unspecified)	0.06
COC(=O)c1cc2cc3c(c(O)c2c(=O)o1)OC1(CC2=C(O1)C(=O)c1c(O)c(NCCNC(=O)OC(C)(C)C)cc(O)c1C2=O)CC3O (stereo unspecified)	0.06
COC(=O)c1cc2cc3c(c(O)c2c(=O)o1)OC1(CC2=C(O1)C(=O)c1c(O)c(NCCN)cc(O)c1C2=O)CC3O (stereo unspecified)	1
CCNc1cc(O)c2c(c1O)C(=O)C1=C(CC3(CC(O)c4cc5cc(C(=O)OC)oc(=O)c5c(O)c4O3)O1)C2=O (stereo unspecified)	0.06
COC(=O)c1cc2cc3c(c(O)c2c(=O)o1)OC1(Cc2c(O)c4c(c(O)c2O1)C(=O)C(OC)=CC4=O)CC3O (stereo unspecified)	0.03
COC(=O)c1cc2cc3c(c(O)c2c(=O)o1)OC1(CC2=C(O1)C(=O)c1c(O)c(N)cc(O)c1C2=O)CC3O (stereo unspecified)	0.03
CCCNc1cc(O)c2c(c1O)C(=O)C1=C(CC3(CC(O)c4cc5cc(C(=O)OC)oc(=O)c5c(O)c4O3)O1)C2=O (stereo unspecified)	0.016
COC(=O)c1cc2cc3c(c(O)c2c(=O)o1)OC1(CC2=C(O1)C(=O)c1c(O)c(NCc4ccccc4)cc(O)c1C2=O)CC3O (stereo unspecified)	0.13

[P] COC(=O)c1cc2cc3c(c(O)c2c(=O)o1)OC1(CC2=C(O1)C(=O)c1c(O)c(NCC#N)cc(O)c1C2=O)CC3O (stereo unspecified)
[Q] COC(=O)c1cc2cc3c(c(O)c2c(=O)o1)OC1(CC2=C(O1)C(=O)c1c(O)c(NCC(F)(F)F)cc(O)c1C2=O)CC3O (stereo unspecified)
[R] CNc1cc(O)c2c(c1O)C(=O)C1=C(CC3(CC(O)c4cc5cc(C(=O)OC)oc(=O)c5c(O)c4O3)O1)C2=O (stereo unspecified)
Q: Highest MIC first, then in falling order down to the smallest. Return the labels ranked in the requested order, please.
Result: P, Q, R
(P: 0.13 µg/mL, Q: 0.016 µg/mL, R: 0.008 µg/mL)

---

- Tested on: Candida albicans
- assay.overview: In vitro antimicrobial activity against Candida albicans L145
- Format: functional
experimental.readout: MIC (µg/mL)

Here's what some known entries look like.
COC(=O)c1cc2cc3c(c(O)c2c(=O)o1)OC1(CC2=C(O1)C(=O)c1c(O)c(NCC(F)(F)F)cc(O)c1C2=O)CC3O (stereo unspecified)	8
COC(=O)c1cc2cc3c(c(O)c2c(=O)o1)OC1(Cc2c(O)c4c(c(O)c2O1)C(=O)C(OC)=CC4=O)CC3O (stereo unspecified)	1
CNc1cc(O)c2c(c1O)C(=O)C1=C(CC3(CC(O)c4cc5cc(C(=O)OC)oc(=O)c5c(O)c4O3)O1)C2=O (stereo unspecified)	2
CCNc1cc(O)c2c(c1O)C(=O)C1=C(CC3(CC(O)c4cc5cc(C(=O)OC)oc(=O)c5c(O)c4O3)O1)C2=O (stereo unspecified)	2

[A] COC(=O)c1cc2cc3c(c(O)c2c(=O)o1)OC1(CC2=C(O1)C(=O)c1c(O)c(N)cc(O)c1C2=O)CC3O (stereo unspecified)
[B] COC(=O)c1cc2cc3c(c(O)c2c(=O)o1)OC1(CC2=C(O1)C(=O)c1c(O)c(NCCN(C)C)cc(O)c1C2=O)CC3O (stereo unspecified)
Q: Given A and given B , which shows the smaller recorded MIC? Could you answer with the label of the item you picked?
Result: A

---

- System: Enterococcus faecalis
- assay.overview: In vitro antimicrobial activity against Enterococcus faecalis ATCC 7080
- Format: functional
experimental.readout: MIC (mg/L)

COC(=O)c1cc2cc3c(c(O)c2c(=O)o1)OC1(CC2=C(O1)C(=O)c1c(O)c(NCc4ccccc4)cc(O)c1C2=O)CC3O (centres undefined)	4
COC(=O)c1cc2cc3c(c(O)c2c(=O)o1)OC1(Cc2c(O)c4c(c(O)c2O1)C(=O)C(OC)=CC4=O)CC3O (centres undefined)	0.06

[a] COC(=O)c1cc2cc3c(c(O)c2c(=O)o1)OC1(CC2=C(O1)C(=O)c1c(O)c(N)cc(O)c1C2=O)CC3O (centres undefined)
[b] COC(=O)c1cc2cc3c(c(O)c2c(=O)o1)OC1(CC2=C(O1)C(=O)c1c(O)c(NCCNC(=O)OC(C)(C)C)cc(O)c1C2=O)CC3O (centres undefined)
Q: Could you point out whether the larger MIC belongs to a or to b ? Use the label to indicate which entry you chose.
Result: b
(b: 0.13 mg/L, a: 0.06 mg/L)

---

- Tested on: Bacteroides fragilis
- assay.overview: In vitro antimicrobial activity against Bacteroides fragilis ATCC 25285
- Type: functional
experimental.readout: MIC (µg/mL)

CNc1cc(O)c2c(c1O)C(=O)C1=C(CC3(CC(O)c4cc5cc(C(=O)OC)oc(=O)c5c(O)c4O3)O1)C2=O (centres undefined)	0.03

[A] COC(=O)c1cc2cc3c(c(O)c2c(=O)o1)OC1(CC2=C(O1)C(=O)c1c(O)c(NCCO)cc(O)c1C2=O)CC3O (centres undefined)
[B] CCCNc1cc(O)c2c(c1O)C(=O)C1=C(CC3(CC(O)c4cc5cc(C(=O)OC)oc(=O)c5c(O)c4O3)O1)C2=O (centres undefined)
Q: Please indicate which has the smaller reported MIC: A , or B . Mark your selection by writing its label.
Result: B

---

- System: Haemophilus influenzae
- assay.overview: In vitro antimicrobial activity against Haemophilus influenza ATCC 19418
- Type: functional
experimental.readout: MIC (µg/mL)

COC(=O)c1cc2cc3c(c(O)c2c(=O)o1)OC1(CC2=C(O1)C(=O)c1c(O)c(NCC(F)(F)F)cc(O)c1C2=O)CC3O (stereo unspecified)	0.06
COC(=O)c1cc2cc3c(c(O)c2c(=O)o1)OC1(CC2=C(O1)C(=O)c1c(O)c(NCCO)cc(O)c1C2=O)CC3O (stereo unspecified)	0.06

[A] CCNc1cc(O)c2c(c1O)C(=O)C1=C(CC3(CC(O)c4cc5cc(C(=O)OC)oc(=O)c5c(O)c4O3)O1)C2=O (stereo unspecified)
[B] CNc1cc(O)c2c(c1O)C(=O)C1=C(CC3(CC(O)c4cc5cc(C(=O)OC)oc(=O)c5c(O)c4O3)O1)C2=O (stereo unspecified)
[C] COC(=O)c1cc2cc3c(c(O)c2c(=O)o1)OC1(CC2=C(O1)C(=O)c1c(O)c(NCc4ccccc4)cc(O)c1C2=O)CC3O (stereo unspecified)
[D] COC(=O)c1cc2cc3c(c(O)c2c(=O)o1)OC1(CC2=C(O1)C(=O)c1c(O)c(NCCNC(=O)OC(C)(C)C)cc(O)c1C2=O)CC3O (stereo unspecified)
Q: List the 4 entries from lowest MIC to highest MIC value. Form entry: ranked labels (order as requested).
Result: A, B, D, C
(A: 0.06 µg/mL, B: 0.13 µg/mL, D: 1 µg/mL, C: 2 µg/mL)
